# System Name: UniProt:P51449
# Sequence (P51449 whole entry, looked up, the tested form may be a part): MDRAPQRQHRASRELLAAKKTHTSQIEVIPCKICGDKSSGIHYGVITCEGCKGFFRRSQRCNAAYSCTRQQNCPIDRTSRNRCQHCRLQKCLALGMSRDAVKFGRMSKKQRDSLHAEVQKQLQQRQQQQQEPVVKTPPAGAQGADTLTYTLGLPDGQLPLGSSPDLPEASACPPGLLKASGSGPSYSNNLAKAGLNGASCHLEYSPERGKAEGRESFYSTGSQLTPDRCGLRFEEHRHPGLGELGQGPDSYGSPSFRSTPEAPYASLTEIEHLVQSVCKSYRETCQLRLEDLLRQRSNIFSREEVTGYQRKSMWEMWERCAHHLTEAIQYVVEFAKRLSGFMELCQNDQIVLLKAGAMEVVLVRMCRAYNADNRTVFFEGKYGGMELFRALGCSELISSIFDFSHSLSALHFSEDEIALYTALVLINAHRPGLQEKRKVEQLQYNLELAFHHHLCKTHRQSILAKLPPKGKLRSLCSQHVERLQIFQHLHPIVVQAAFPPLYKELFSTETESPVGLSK
# Experiment Notes: RORγ Gal4 Reporter Gene Assay
# Format: cell-based
# Stated Conditions: renilla normalised (RENnorm) luciferase, 293T cells; read-out: pIC50 (REN) (converted)
IC50 under 20 nM gets Yes, anything at or over 20 nM gets No.

1) CC(C)(C)c1cc(-c2nc(C(N)=O)oc2CC2CCCCC2)cc(C(C)(C)C)c1 : No
2) C[C@H](NS(=O)(=O)c1ccc(-c2sc(C(=O)NC3CCOCC3)nc2CC2CCCCC2)c2ccccc12)C(F)(F)F : Yes
3) C[C@H](NS(=O)(=O)c1ccc(-c2sc(C(=O)NC3CCS(=O)(=O)CC3)nc2CC2CCCC2)c(Cl)c1Cl)C(F)(F)F : Yes
4) CC(C)(C)c1cc(-c2sc(C(=O)N[C@H]3C[C@H](C(=O)O)C3)nc2CC2CCCCC2)cc(C(C)(C)C)n1 : No
5) CC(C)(C)c1cc(-c2sc(C(=O)N[C@H]3C[C@H](C(=O)O)C3)nc2CC2CCCCC2)cc(C(C)(C)C)[n+]1[O-] : No
6) C[C@H](NS(=O)(=O)c1ccc(-c2sc(C(=O)NC3CCS(=O)(=O)CC3)nc2CC2CCCC2)c2ccccc12)C(F)(F)F : Yes
7) CC(C)(C)NS(=O)(=O)c1ccc(-c2sc(C(=O)N[C@H]3C[C@H](C(=O)O)C3)nc2CC2CCCCC2)c(OC(F)F)c1Cl : Yes
8) CC(C)(C)c1cc(-c2nc(C(=O)N[C@H]3C[C@H](C(=O)O)C3)oc2CC2CCCCC2)cc(C2(C)CC2)c1 : No
9) CC(C)(O)CNC(=O)c1nc(CC2CCCCC2)c(-c2ccc(S(N)(=O)=O)c(Cl)c2Cl)s1 : No
10) O=C(N[C@H]1C[C@H](C(=O)O)C1)c1nc(CC2CCCCC2)c(-c2ccc(OCC(F)(F)F)c3ccccc23)s1 : No
11) CCCc1nc(C(=O)N[C@H]2C[C@H](C(=O)O)C2)sc1-c1ccc(S(=O)(=O)NC(C)(C)C)c(Cl)c1Cl : No
12) CC(=O)NS(=O)(=O)c1nc(-c2cc(C(C)(C)C)cc(C(C)(C)C)c2)c(CC2CCCCC2)s1 : No
13) CC(C)(C)NS(=O)(=O)c1ccc(-c2sc(C(=O)N[C@H]3C[C@H](C(=O)O)C3)nc2CC2CCCCC2)c(OC(F)(F)F)c1 : Yes
14) CC(C)(C)c1cc(-c2sc(C(=O)N[C@H]3C[C@H](C(=O)O)C3)nc2CC2CCCCC2)cc(C(C)(C)O)n1 : No
15) CCCc1nc(C(=O)N[C@H]2C[C@H](C(=O)O)C2)sc1-c1ccc(S(=O)(=O)NC(C)(C)C)c2ccccc12 : No
16) CC(C)(C)NS(=O)(=O)c1ccc(-c2sc(C(=O)N[C@H]3C[C@H](C(=O)O)C3)nc2CC2CCC2)c2ccccc12 : Yes
17) O=C(N[C@H]1C[C@H](C(=O)O)C1)c1nc(CC2CCCCC2)c(-c2ccc(OC(F)(F)F)c3ccccc23)s1 : No
18) CC(C)(C)NS(=O)(=O)c1ccc(-c2sc(C(=O)N[C@H]3C[C@H](C(=O)O)C3)nc2Cc2ccccc2)c2ccccc12 : No
19) CC(C)(C)c1cc(-c2sc(S(=O)(=O)NC(=O)OCc3ccccc3)nc2CC2CCCCC2)cc(C2(C)CC2)c1 : No
20) COc1ccc(-c2sc(C(=O)N[C@H]3C[C@H](C(=O)O)C3)nc2CC2CCCCC2)c2ccccc12 : No

From: patent US10301272B2
